test_name: growth inhibitors of H69AR lung tumor, primary screen, human, duplicate replicates (AID 580);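 further: 100% = mean luminescence of untreated wells and 0% = no signal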
condition_label: H69AR lung tumor cells viability, ATP luminescence, 72 h; at 10 µM; active compounds read low
Binary call on viability with cut-off 90%: strictly below means condition met, and equality or higher means condition not met.

For this compound, is viability lower than 90%? `O=S(=O)(Nc1ncccn1)c1ccc(Nc2ncnc3ccccc23)cc1`
condition not met

Now the compound `CCCCOc1ccc(CSc2n[nH]c(C)n2)cc1`
condition not met

Further, for `CC1(C)CC(=O)C=C(Nc2ccc(F)cc2)C1` ?
condition not met

Would you mind doing CCCCCC1CC(CC(C)C(=O)Nc2nncs2)C(=O)O1 (stereo not drawn) as well?
condition not met

What do you have for `CCOc1ccc(-c2nnn(CC(=O)N3CCN(c4ccc(F)cc4)CC3)n2)cc1OCC` ?
condition met

Thanks! And `CCn1nccc1C(=O)Nc1cc(Cl)ccc1Cl` ?
condition not met

Record: `CN(C)c1nc(Oc2ccc(=O)n(C)n2)nc(N2CCOCC2)n1`
condition not met

Again, but for O=C1Nc2ccccc2OC1CC(=O)N1CCCC1 (stereo not drawn)
condition not met

Next up: `Cc1cc(C(=O)O)ccc1-n1c(C)ccc1C`
condition not met

Follow-up item: CCOC(=O)C1=C(C)Nc2ncnn2C1c1cc(OC)ccc1OC (stereo not drawn)
condition met

Would you kindly repeat that for `COCCN1Cc2cccc(C(=O)Nc3cccnc3)c2C1=O` ?
condition not met

And the next one, `CC1CCN(S(=O)(=O)c2ccc3[nH]c(=O)cc(C(=O)O)c3c2)CC1` ?
condition not met

Try this compound too: `O=c1cc(CSc2ccccn2)c2ccccc2[nH]1`
condition not met

Try this compound too: `COc1ccccc1N1CCN(C(=O)c2ccc(CS(=O)(=O)c3ccccc3OC)o2)CC1`
condition met

What would you report for CCC1SC2=NC(C)=C(C(=O)OC)C(c3ccc(C)cc3)N2C1=O (stereo not drawn) ?
condition not met

Query `Cc1ccc(NC(=O)CCC(=O)OCC(F)(F)C(F)F)cc1` next
condition not met

Now consider COc1ccc(C2C3=C(CC(C)(C)CC3=O)Oc3ncn4nc(-c5cccnc5)nc4c32)cc1 (stereo not drawn) and answer again.
condition not met

Entry to check: `O=C(OCCN1C(=O)c2ccccc2C1=O)c1ccc(S(=O)(=O)N2CCCCCC2)cc1`
condition not met

* * *

assayed_target: Receptor tyrosine-protein kinase erbB-2 (Homo sapiens) (UniProt P04626)
Sequence (P04626 whole entry, looked up): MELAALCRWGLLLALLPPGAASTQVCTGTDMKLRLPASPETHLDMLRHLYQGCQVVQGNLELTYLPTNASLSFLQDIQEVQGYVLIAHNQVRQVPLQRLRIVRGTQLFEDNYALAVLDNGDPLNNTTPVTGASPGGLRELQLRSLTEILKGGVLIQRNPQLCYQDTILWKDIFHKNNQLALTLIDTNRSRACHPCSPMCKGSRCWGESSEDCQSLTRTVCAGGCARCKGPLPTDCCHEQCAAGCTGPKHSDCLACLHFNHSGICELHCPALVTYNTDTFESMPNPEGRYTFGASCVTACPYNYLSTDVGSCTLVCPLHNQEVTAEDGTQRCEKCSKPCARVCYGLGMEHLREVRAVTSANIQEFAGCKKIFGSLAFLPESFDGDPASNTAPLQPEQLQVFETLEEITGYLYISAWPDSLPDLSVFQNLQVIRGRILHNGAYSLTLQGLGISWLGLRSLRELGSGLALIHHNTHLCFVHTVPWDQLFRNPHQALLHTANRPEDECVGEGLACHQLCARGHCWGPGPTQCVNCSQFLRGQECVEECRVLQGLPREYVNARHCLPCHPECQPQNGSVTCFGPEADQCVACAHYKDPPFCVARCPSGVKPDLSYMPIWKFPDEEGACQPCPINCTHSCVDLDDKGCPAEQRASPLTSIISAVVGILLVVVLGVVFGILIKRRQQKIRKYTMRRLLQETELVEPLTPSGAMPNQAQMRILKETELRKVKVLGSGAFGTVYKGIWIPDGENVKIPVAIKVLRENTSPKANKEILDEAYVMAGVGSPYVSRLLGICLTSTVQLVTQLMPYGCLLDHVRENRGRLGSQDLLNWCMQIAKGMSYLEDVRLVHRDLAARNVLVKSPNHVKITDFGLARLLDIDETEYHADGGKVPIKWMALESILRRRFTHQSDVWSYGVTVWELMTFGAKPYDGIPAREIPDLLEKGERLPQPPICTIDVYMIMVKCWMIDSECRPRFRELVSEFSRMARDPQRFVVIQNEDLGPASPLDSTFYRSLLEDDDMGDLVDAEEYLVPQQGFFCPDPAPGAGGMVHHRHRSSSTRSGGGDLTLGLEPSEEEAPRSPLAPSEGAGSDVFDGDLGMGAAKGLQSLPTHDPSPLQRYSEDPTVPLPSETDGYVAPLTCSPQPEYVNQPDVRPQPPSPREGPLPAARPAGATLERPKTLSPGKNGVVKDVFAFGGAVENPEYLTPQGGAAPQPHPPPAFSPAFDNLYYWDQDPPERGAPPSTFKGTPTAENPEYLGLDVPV
test_name: reducers of endogenous Her2 protein level, primary screen, SKBR3 breast tumor cells, AlphaScreen, ATP viability (AID 461);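 further: lower value means less Her2 protein in the cells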
condition_label: 18-24 h, at 10 µM, active compounds read low
Square brackets hold non-standard residues; d marks the D form. Peptide text beside a SMILES is read from it. * marks the point of attachment. ξ: configuration not given here. Cbz = O=C(OCc1ccccc1)*; ξK = NCCCCC(N)C(=O)O
For each entry below, report its Her2 level value.
Express your answer in %, writing the number without its unit.

Give its Her2 level value. Item: `O=C(CSc1nc(O)c(Cc2ccccc2)c(=O)[nH]1)Nc1ccccc1`
97

Lookup CCOC(=O)C1CCN(c2nc3ccccc3nc2C(C#N)C(=O)OCCOC)CC1 (stereo unspecified)
98

Entry to check: `O=C(COC(=O)c1ccc(S(=O)(=O)Nc2ccccc2)cc1)NCCN1C(=O)CSC1=O`
108

Let us now turn to COC(=O)C(CCCCNC(=O)OCc1ccccc1)NC(=O)CN (stereo unspecified) (H-Gly-[ξK](Cbz)-OMe)
92.5

Thanks! And `O=C(c1cccc(C(=O)N2CCN(c3ccccc3)CC2)c1)N1CCN(c2ccccc2)CC1` ?
106

Also need `CC1(C)Cc2cccc(OCC(=O)O)c2O1` , thanks.
90

Same lookup for `CCOc1cc(CN2CCN(C(=O)c3ccco3)CC2)ccc1OC` , please.
102

Same thing, different compound: `COc1cc(NC(=O)c2cc(OC)c(OC)c(OC)c2)c(OC)cc1NC(=O)CN1CCCCC1`
68.5

Try the compound Cc1cc(C)c2cc3c(ccn3C3OC[C@H](O)[C@H](O)[C@H]3O)cc2n1 (stereo partly specified)
105

Cool, now COCCn1nnnc1C(C(C)C)N1CCN(C(=O)c2ccco2)CC1 (stereo unspecified)
112

Subsequent entry: `CCc1nc(C)c(C#N)c2cc(OC)c(OC)cc12`
90

Now give it for CCOC(=O)C1=C(C)Nc2ncnn2C1c1ccccc1F (stereo unspecified) too.
110

Follow-up item: `O=C(c1ccco1)N(Cc1cc2ccccc2[nH]c1=O)C1CCCCC1`
103

Next compound up: Cc1cccc(NC(=O)c2cc3n(n2)C(C(F)(F)F)CC(c2ccc4c(c2)OCO4)N3)c1 (stereo unspecified)
68.5

Subsequent entry: CN1C2C=C3C(C#N)=C(N)C(C#N)(C#N)[C@@H](c4ccc(Cl)cc4)[C@@H]3C1CC2 (stereo partly specified)
87

Another compound: `O=S(=O)(NCCc1ccccc1F)c1cccc(S(=O)(=O)N2CCOCC2)c1`
94.5

Lookup `CCCCCOC(=O)CSc1nnc(-c2cc(OC)c(OC)c(OC)c2)o1`
69.5

Would you kindly repeat that for `Brc1ccc(-c2cn3cccnc3n2)cc1` ?
97.5

Try this compound next: `O=C(Cn1cnc2c(cnn2-c2ccc(F)cc2)c1=O)N1CCCc2ccccc21`
86.5

Moving on to `COc1ccc(-c2noc(CN(C(=O)C(C)(C)C)C(C)C)n2)cc1`
102

Another compound to look at: `CCCCP(=O)(CCCC)c1ccccc1C(=O)O`
104

Try this compound next: `Cc1nc(-c2cccc(N)c2)cs1`
94.5

Try this compound next: `O=C(Nc1cccnc1)c1noc2c1CCCCC2`
90

Would you kindly repeat that for `O=C1COc2ccc(C(=O)NCc3ccco3)cc2N1` ?
86

Let us now turn to `CCn1nnc(-c2ccccc2NC(=O)c2ccc(-n3cnnn3)cc2)n1`
87

Param item: `COc1ccc(Cl)c(NCCC(=O)O)c1`
107

Now consider `O=C(CCN1CCN(c2ccc(F)cc2)CC1)Nc1ccccc1F` .
91

What about `c1cnn(-c2cc(N3CCOCC3)ncn2)c1` ?
117

Next up: `COc1cccc(OCc2nc3ccccc3[nH]2)c1`
110

Next entry: `COc1ccc(-n2ncc3c(NCCCN4CCOCC4)ncnc32)cc1`
102

Do the same for `COC(=O)C1CCN(C(=O)c2sc3nc(-c4ccc(F)cc4)cn3c2C)CC1` please
92

// repeat for `CCOCCCNC(=O)CS(=O)(=O)Cc1nc(-c2cccc(OC)c2)oc1C` and report
92

Input `CC(C)OC(=O)CN1C(=O)C(C)(C)Oc2ccc(C(=O)NC3CC3)cc21`
92.5

Try the compound COc1ccccc1NC(=O)c1cc2n(n1)C(C(F)(F)F)CC(c1ccc3c(c1)OCO3)N2 (stereo unspecified)
95

Quick one: `COC(=O)c1cc2oc(C)cc2n1CC(=O)Nc1ccc(C)c(C)c1`
83

And CC1C(c2ccccc2)N(C)CCC12NC(=O)NC2=O (stereo unspecified) ?
95.5

Moving on to the next compound: O=C(NC1CCS(=O)(=O)C1)c1c(NC(=O)C2COc3ccccc3O2)sc2c1CCCC2 (stereo unspecified)
69.5

Try the compound `CN(Cc1ccco1)C(=O)Cn1c(=O)oc2cc(S(=O)(=O)NCc3ccccc3)ccc21`
85.5

Same question, `COc1ccc(S(=O)(=O)N2CCN(C3CCCCCCC3)CC2)cc1` this time
89.5

How about this compound: `O=C(c1cnsn1)N1CCN(c2ccccn2)CC1`
75

Please answer likewise for `O=C(NCC(F)(F)F)N1CCOCC1`
85.5

Check CCC(=O)N[C@@H]1CC(C(C)(C)NC(=O)CC)CC=C1C (stereo partly specified) too.
83.5

And the next one, `Cc1nnc(SCc2ccccc2)n1N` ?
98

Do the same for `Cn1c(=O)c2c(nc(N3CCCCC3)n2CCSc2nc3ccccc3o2)n(C)c1=O` please
105

Quick one: `COc1ccccc1OCC(=O)Nc1cccc(-c2nc3ccccc3o2)c1`
78.5

Repeat for the following compound: `CCc1nnc2c3cnn(-c4ccccc4)c3ncn12`
95

Value source: PubChem BioAssay
